Provenance of the data: the RNAGym collection of RNA variant scans (doi:10.1073/pnas.2313332121)

B1: TPR 5TU (parent)
chain: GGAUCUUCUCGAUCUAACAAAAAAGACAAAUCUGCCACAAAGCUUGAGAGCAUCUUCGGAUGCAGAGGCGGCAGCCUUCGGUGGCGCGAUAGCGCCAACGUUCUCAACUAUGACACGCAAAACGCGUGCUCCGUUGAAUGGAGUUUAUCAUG

# Variants of: B1
# test_name: polymerase ribozyme fitness, log enrichment relative to wild type (log ratio); higher = more active; in vitro selection for triplet polymerase activity
Fewer inactive variants are shown than the library holds.
measured_attribute: polymerase ribozyme fitness (log ratio)
Reply: number alone, nothing else.

Consider the worked cases shown below.
In [3]: df
Out[3]:
        variant_notation                       measured_attribute  recorded_number
0              G48C G83U  polymerase ribozyme fitness (log ratio)            -1.41
1  G62C G94A G133C G141U  polymerase ribozyme fitness (log ratio)            -3.95
2             A97U G152A  polymerase ribozyme fitness (log ratio)            -2.62
3              U61C G70A  polymerase ribozyme fitness (log ratio)            -4.13
4        C75U G84U U134C  polymerase ribozyme fitness (log ratio)            -1.39
5              A37C U56A  polymerase ribozyme fitness (log ratio)           -0.806

I would be grateful if you could share the reported polymerase ribozyme fitness (log ratio) for G88U C105U . -3.83

Thanks! And C8U A19C U33G U53A U55A C96G C108U ? -3.8

Thanks! And G58C A106C ? 0.355

Thanks! And A49U C96A ? -3.45

Thanks! And G50U A91G ? -2.52

Thanks! And A19G C96U C123U ? -0.681

Thanks! And A17U A113U ? -1.99

Thanks! And G81C G94A ? -0.416

Thanks! And A22U G94A ? -0.557

Thanks! And `G71C` ? -2.66

Thanks! And A60U C76A A120U ? -1.94

Thanks! And G59A G92C ? -2.78

Thanks! And A17U G94C C95U C105U ? -0.248

Thanks! And A39U A60U U146A ? -3.58
